Values were extracted from patent US20070128217A1.

Each entry below carries its recorded Binding of serum 62 to looped/cyclic peptides of protein M of SARS-CoV Urbani.
system: antibodies in sera from SARS patients (sera 1a, 1b, 2, 6, 37, 62, London, SARS-yellow, SARS-green); assay type: binding, human
observed property: Binding of serum 62 to looped/cyclic peptides of protein M of SARS-CoV Urbani

* MLLQFAYSNRNRFLY | 0.5
* CFVLAAVYRINWVTG | 0.7
* LLEQWNLVIGFLFLA | 0.4
* RVGTDSGFAAYNRYR | 0.6

* * *

tested on: control sera (pooled serum of ten healthy LUMC hospital workers; commercial negative donor pooled serum from the Dutch bloodbank); format: binding, human; design: unit not given here
observed property: Binding of Control serum LUMC to linear peptides

• TIYSHLLLVAAGMEA = 0.4
• DQIGYYRRATRRVRG = 0.7
• HPLADNKFALTCTST = 0.6
• RFFTLGSITAQPVKI = 1.1
• IPYNSVTDTIVVTEG = 0.5
• RCWLGWKCKSKNPLL = 1.0
• QTLVLKMLHSSSLTS = 0.4
• LYKGFQFICNLLLLF = 0.5
• SRGGSQASSRSSSRS = 0.6
• KPRQKRTATKQYNVT = 0.7
• IHTIDGSSGVANPAM = 0.8
• NNQNGGRNGARPKQR = 0.8
• LYDANYFVCWHTHNY = 0.7
• QQWIQFMMSRRRLLA = 0.6
• SVSPKLFIRQEEVQQ = 0.3
• PYGANKEGIVWVATE = 0.7
• LQASLPFGWLVIGVA = 0.5
• NKRWQLALYKGFQFI = 0.6
